I'd be grateful if you could share measured abundance fitness for these entries.
B1: CD2-associated protein, residues 271 to 331; numbered along this chain, Q9Y5K6 (parent)
chain: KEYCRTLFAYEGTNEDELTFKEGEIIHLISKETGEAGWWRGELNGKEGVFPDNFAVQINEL

# Variants of: B1
# PROTOCOL_DESCRIPTION: abundance fitness (aPCA) (normalised: wild type 0, dead -1); higher = more abundant; growth selection in yeast, the domain comes from the species named
# CONDITIONS: Homo sapiens

Request: Need abundance fitness, item `E60V`
Result: -0.291

Request: Record: `L18I`
Result: -0.513

Request: Record: `W38C`
Result: -0.345

Request: Record: `H27K`
Result: 0.031

Request: Record: `S30P`
Result: -0.71

Request: Record: `L18S`
Result: -0.766

Request: Record: `N14P`
Result: -0.756

Request: Record: `I25P`
Result: -0.794

Request: Record: `R40Q`
Result: -0.3

Request: Record: `E2L`
Result: -0.136

Request: Record: `E15L`
Result: -0.208

Request: Record: `R5W`
Result: -0.689

Request: Record: `D16H`
Result: -0.008

Request: Record: `R5N`
Result: -0.601

Request: Record: `L7F`
Result: -0.741

Request: Record: `T6G`
Result: -0.528

Request: Record: `H27V`
Result: -0.03

Request: Record: `T19N`
Result: -0.153

Request: Record: `E11I`
Result: -0.164

Request: Record: `K21W`
Result: -0.538

Request: Record: `Y3Q`
Result: -0.775

Request: Record: `D52R`
Result: -0.043

Request: Record: `W38Q`
Result: -0.3

Request: Record: `C4E`
Result: -1.09

Request: Record: `F50A`
Result: -0.539

Request: Record: `R5H`
Result: -0.461

Request: Record: `Q57Y`
Result: -0.463

Request: Record: `G41H`
Result: -0.746

Request: Record: `E60I`
Result: -0.475

Request: Record: `R40K`
Result: 0.014

Request: Record: `E35D`
Result: 0.02

Request: Record: `T33N`
Result: -0.333

Request: Record: `T33R`
Result: -0.473

Request: Record: `E35T`
Result: 0.132

Request: Record: `E11Q`
Result: -0.4

Request: Record: `F54Q`
Result: -0.347

Request: Record: `E24K`
Result: -0.697

Request: Record: `L43G`
Result: -0.766

Request: Record: `E60C`
Result: -0.127

Request: Record: `N14W`
Result: -0.239

Request: Record: `D16N`
Result: 0.014

Request: Record: `T33D`
Result: -0.282

Request: Record: `L18R`
Result: -0.816

Request: Record: `L43M`
Result: -0.219

Request: Record: `G41W`
Result: -1.14

Request: Record: `I25M`
Result: -0.064
